Taken from patent US8927500B2.

The reader will find reported pKi values listed item by item below.
Target: MDM2 (Homo sapiens, UniProt Q00987)
Sequence (Q00987 1-125): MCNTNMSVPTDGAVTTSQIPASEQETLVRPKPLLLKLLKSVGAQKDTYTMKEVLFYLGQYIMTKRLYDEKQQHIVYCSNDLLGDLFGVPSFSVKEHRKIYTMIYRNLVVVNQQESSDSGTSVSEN
Assay: Competitive fluorescence polarization assay for MDM2
Type: binding
Conditions: competitive FP assay, MDM2; read-out: Ki (MDM2)
pKi: −log10 of the molar value. Where a SMILES comes first, the peptide text is derived from it. Bridges are numbered along the chain shown (N, C = ends). [ ]: non-standard residue; d: D form. The star is where a group is joined. Palmitoyl = CCCCCCCCCCCCCCCC(=O)*; R8 = C=CCCCCCC[C@@](C)(N)C(=O)O; Cba = N[C@@H](CC1CCC1)C(=O)O; S5 = C=CCCC[C@](C)(N)C(=O)O; Sar = CNCC(=O)O

>  <compound>
CC(=O)N[C@@H](CC(C)C)C(=O)N[C@H](C(=O)N[C@@H](Cc1ccccc1)C(=O)N[C@]1(C)CCCCCCC=CCCC[C@@](C)(C(=O)N[C@@H](CO)C(=O)N[C@@H](CO)C(=O)N[C@H](C)C(N)=O)NC(=O)[C@H](CC(C)C)NC(=O)[C@H](CCC(N)=O)NC(=O)[C@H](C)NC(=O)[C@H](Cc2c[nH]c3ccccc23)NC(=O)[C@H](Cc2ccc(O)cc2)NC(=O)[C@H](C(C)C)NC1=O)[C@@H](C)O [compound 133] (Ac-LTF[R8]VYWAQL[S5]SS[dA]-NH2; staple 4-11)

>  <system>
MDM2 (Homo sapiens, UniProt Q00987)

>  <pKi>
> 8.00

$$$$
>  <compound>
CC(=O)N[C@@H](CC(C)C)C(=O)N[C@H](C(=O)N[C@@H](Cc1ccccc1)C(=O)N[C@]1(C)CCCCCCC=CCCC[C@@](C)(C(=O)N[C@@H](C)C(=O)N[C@@H](C)C(=O)N[C@@H](Cc2ccccc2)C(=O)N[C@H](C)C(N)=O)NC(=O)[C@H](CC(C)C)NC(=O)[C@H](CCC(N)=O)NC(=O)[C@H](C)NC(=O)[C@H](Cc2c[nH]c3ccccc23)NC(=O)[C@H](Cc2ccc(O)cc2)NC(=O)[C@H](CCC(=O)O)NC1=O)[C@@H](C)O (single isomer, unassigned)

>  <system>
MDM2 (Homo sapiens, UniProt Q00987)

>  <pKi>
> 8.00

$$$$
>  <compound>
CC(=O)N[C@@H](CC(C)C)C(=O)N[C@H](C(=O)N[C@@H](Cc1ccccc1)C(=O)N[C@]1(C)CCCCCCC=CCCC[C@@](C)(C(=O)N[C@@H](C)C(=O)N[C@@H](C)C(=O)N[C@@H](C)C(=O)N[C@@H](C)C(=O)N(C)CC(=O)N[C@H](C)C(N)=O)NC(=O)[C@H](CC(C)C)NC(=O)[C@H](CCC(N)=O)NC(=O)[C@H](C)NC(=O)[C@H](Cc2c[nH]c3ccccc23)NC(=O)[C@H](Cc2ccc(O)cc2)NC(=O)[C@H](CCC(=O)O)NC1=O)[C@@H](C)O [compound 577] (Ac-LTF[R8]EYWAQL[S5]AAAA[Sar][dA]-NH2; staple 4-11)

>  <system>
MDM2 (Homo sapiens, UniProt Q00987)

>  <pKi>
> 8.00

$$$$
>  <compound>
CC(=O)N[C@@H](CC(C)C)C(=O)N[C@H](C(=O)N[C@@H](Cc1ccccc1)C(=O)N[C@]1(C)CCCCCCC=CCCC[C@@](C)(C(=O)N[C@@H](CO)C(N)=O)NC(=O)[C@H](CC2CCC2)NC(=O)[C@H](CCC(N)=O)NC(=O)[C@H](C)NC(=O)[C@H](Cc2c[nH]c3ccccc23)NC(=O)[C@H](Cc2ccc(O)cc2)NC(=O)[C@H](CCC(=O)O)NC1=O)[C@@H](C)O [compound 595] (Ac-LTF[R8]EYWAQ[Cba][S5]S-NH2; staple 4-11)

>  <system>
MDM2 (Homo sapiens, UniProt Q00987)

>  <pKi>
< 6.00

$$$$
>  <compound>
CC(=O)N[C@@H](CC(C)C)C(=O)N[C@H](C(=O)N[C@@H](Cc1ccccc1)C(=O)N[C@]1(C)CCCCCCC=CCCC[C@@](C)(C(=O)N[C@@H](CO)C(=O)N[C@@H](C)C(=O)N[C@@H](Cc2ccccc2)C(N)=O)NC(=O)[C@H](CC2CCC2)NC(=O)[C@H](CCC(N)=O)NC(=O)[C@H](CO)NC(=O)[C@H](Cc2c[nH]c3ccccc23)NC(=O)[C@H](Cc2ccc(O)cc2)NC(=O)[C@H](C)NC1=O)[C@@H](C)O [compound 262] (Ac-LTF[R8]AYWSQ[Cba][S5]SAF-NH2; staple 4-11)

>  <system>
MDM2 (Homo sapiens, UniProt Q00987)

>  <pKi>
> 8.00

$$$$
>  <compound>
CC(=O)N[C@@H](CC(C)C)C(=O)N[C@H](C(=O)N[C@@H](Cc1ccccc1)C(=O)N[C@]1(C)CCCCCCC=CCCC[C@@](C)(C(=O)N[C@@H](C)C(=O)N[C@@H](C)C(=O)N[C@@H](Cc2ccccc2)C(=O)N[C@H](C)C(N)=O)NC(=O)[C@H](CC(C)C)NC(=O)[C@H](CCC(N)=O)NC(=O)[C@H](C)NC(=O)[C@H](Cc2c[nH]c3ccccc23)NC(=O)[C@H](Cc2ccc(O)cc2)NC(=O)[C@H](C)NC1=O)[C@@H](C)O (single isomer, unassigned)

>  <system>
MDM2 (Homo sapiens, UniProt Q00987)

>  <pKi>
> 8.00

$$$$
>  <compound>
CC(=O)N[C@@H](CC(C)C)C(=O)N[C@H](C(=O)N[C@@H](Cc1ccccc1)C(=O)N[C@]1(C)CCCCCCC=CCCC[C@@](C)(C(=O)N[C@@H](C)C(=O)N[C@@H](Cc2c[nH]cn2)C(=O)N[C@@H](Cc2ccccc2)C(=O)N[C@@H](C)C(N)=O)NC(=O)[C@H](CC(C)C)NC(=O)[C@H](C)NC(=O)[C@H](C)NC(=O)[C@H](Cc2c[nH]c3ccccc23)NC(=O)[C@H](Cc2ccc(O)cc2)NC(=O)[C@H](C)NC1=O)[C@@H](C)O [compound 204] (Ac-LTF[R8]AYWAAL[S5]AHFA-NH2; staple 4-11)

>  <system>
MDM2 (Homo sapiens, UniProt Q00987)

>  <pKi>
> 8.00

$$$$
>  <compound>
CCCCCCCCCCCCCCCC(=O)N[C@@H](CCC(=O)O)C(=O)N[C@H](C(=O)N[C@@H](Cc1ccccc1)C(=O)N[C@]1(C)CCCCCCC=CCCC[C@@](C)(C(=O)N[C@@H](CO)C(=O)N[C@@H](C)C(=O)N[C@@H](C)C(N)=O)NC(=O)[C@H](CC2CCC2)NC(=O)[C@H](CCC(N)=O)NC(=O)[C@H](C)NC(=O)[C@H](Cc2c[nH]c3ccccc23)NC(=O)[C@H](Cc2ccc(O)cc2)NC(=O)[C@H](CCC(=O)O)NC1=O)[C@@H](C)O [compound 250] (Palmitoyl-ETF[R8]EYWAQ[Cba][S5]SAA-NH2; staple 4-11)

>  <system>
MDM2 (Homo sapiens, UniProt Q00987)

>  <pKi>
6.00 to 7.00

$$$$

----------
Target: UniProt:O15151
Sequence (O15151 1-125): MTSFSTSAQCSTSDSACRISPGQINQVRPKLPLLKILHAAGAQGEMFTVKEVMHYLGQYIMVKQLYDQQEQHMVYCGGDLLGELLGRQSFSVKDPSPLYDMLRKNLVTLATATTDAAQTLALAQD
Assay: Competitive fluorescence polarization assay for MDMX
Assay type: binding
Conditions: competitive FP assay, read-out: IC50 (MDMX)
Where a SMILES comes first, the peptide text is derived from it. Bridges are numbered along the chain shown (N, C = ends). [ ]: non-standard residue; d: D form. Phe(3,4-F2) = N[C@@H](Cc1ccc(F)c(F)c1)C(=O)O; R8 = C=CCCCCCC[C@@](C)(N)C(=O)O; Cba = N[C@@H](CC1CCC1)C(=O)O; S5 = C=CCCC[C@](C)(N)C(=O)O; Nle = CCCC[C@H](N)C(=O)O
The reader will find reported IC50 values listed item by item below.
observed-property: IC50

>  <molecule>
CCCC[C@H](NC(=O)[C@H](C)NC(=O)[C@H](CO)NC(=O)[C@]1(C)CCCC=CCCCCCC[C@@](C)(NC(=O)[C@H](Cc2ccc(F)c(F)c2)NC(=O)[C@@H](NC(=O)[C@H](CC(C)C)NC(C)=O)[C@@H](C)O)C(=O)N[C@@H](CCC(=O)O)C(=O)N[C@@H](Cc2ccc(O)cc2)C(=O)N[C@@H](Cc2c[nH]c3ccccc23)C(=O)N[C@@H](C)C(=O)N[C@@H](CCC(N)=O)C(=O)N[C@@H](CC2CCC2)C(=O)N1)C(=O)N[C@@H](C)C(N)=O [compound 243] (Ac-LT[Phe(3,4-F2)][R8]EYWAQ[Cba][S5]SA[Nle]A-NH2; staple 4-11)

>  <system>
UniProt:O15151

>  <result>
10 to 100 nM

$$$$
>  <molecule>
CC[C@H](C)[C@H](NC(C)=O)C(=O)N[C@H](C(=O)N[C@@H](Cc1ccccc1)C(=O)N[C@]1(C)CCCCCCC=CCCC[C@@](C)(C(=O)N[C@@H](C)C(=O)N[C@@H](C)C(=O)N[C@H](C(=O)N[C@H](C)C(N)=O)[C@@H](C)CC)NC(=O)[C@H](CC(C)C)NC(=O)[C@H](CCC(N)=O)NC(=O)[C@H](C)NC(=O)[C@H](Cc2c[nH]c3ccccc23)NC(=O)[C@H](Cc2c[nH]cn2)NC(=O)[C@H](CCC(=O)O)NC1=O)[C@@H](C)O (single isomer, unassigned) [compound 173]

>  <system>
UniProt:O15151

>  <result>
100 to 1000 nM

$$$$
